Listed next: entries and their corresponding protein stability index.
B1: ZNF649 (parent)
chain: DECEKAYFYMSCLVKHKRIHSREK

Variants of: B1
Assay: protein stability index of a GFP-peptide fusion (GPS, HEK-293T) (PSI 1-6); higher = more stable;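 note: lentivirally expressed fusions sorted by FACS into six bins by GFP to DsRed ratio, PSI derived from sequencing read proportions per bin multiplied by bin number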
Settings: c terminus: a fixed tail appended
measurementKind: protein stability index

variantidentifier=A6E measurementkind="protein stability index" number=3.01
variantidentifier=S11N measurementkind="protein stability index" number=2.97
variantidentifier=S11Q measurementkind="protein stability index" number=3.03
variantidentifier=K5Q measurementkind="protein stability index" number=3.08
variantidentifier=E2D measurementkind="protein stability index" number=2.21
variantidentifier=H20M measurementkind="protein stability index" number=2.1
variantidentifier=E23N measurementkind="protein stability index" number=2.38
variantidentifier=K15V measurementkind="protein stability index" number=1.75
variantidentifier=D1S measurementkind="protein stability index" number=2.81
variantidentifier=C3Q measurementkind="protein stability index" number=3.11
variantidentifier=S21A measurementkind="protein stability index" number=2.48
variantidentifier=S21M measurementkind="protein stability index" number=2.13
variantidentifier=K17S measurementkind="protein stability index" number=2.19
variantidentifier=K5H measurementkind="protein stability index" number=2.79
variantidentifier=H20P measurementkind="protein stability index" number=3.15
variantidentifier=R18W measurementkind="protein stability index" number=2.34
variantidentifier=F8W measurementkind="protein stability index" number=3.07
variantidentifier=A6Q measurementkind="protein stability index" number=3.02
variantidentifier=V14C measurementkind="protein stability index" number=2.33
variantidentifier=F8P measurementkind="protein stability index" number=4.1
variantidentifier=M10N measurementkind="protein stability index" number=4.14
variantidentifier=E23L measurementkind="protein stability index" number=2.99
variantidentifier=M10F measurementkind="protein stability index" number=2.33
variantidentifier=D1M measurementkind="protein stability index" number=2.06
variantidentifier=H20L measurementkind="protein stability index" number=2.48
variantidentifier=C3V measurementkind="protein stability index" number=2.55
variantidentifier=K17T measurementkind="protein stability index" number=2.27
variantidentifier=H20A measurementkind="protein stability index" number=2.22
variantidentifier=D1N measurementkind="protein stability index" number=2.72
variantidentifier=I19H measurementkind="protein stability index" number=3.15
variantidentifier=Y7K measurementkind="protein stability index" number=3.57
variantidentifier=C3I measurementkind="protein stability index" number=1.81
variantidentifier=D1E measurementkind="protein stability index" number=2.47
variantidentifier=I19A measurementkind="protein stability index" number=3.26
variantidentifier=A6R measurementkind="protein stability index" number=2.35
variantidentifier=I19S measurementkind="protein stability index" number=3.36
variantidentifier=K17Y measurementkind="protein stability index" number=2.14
variantidentifier=L13F measurementkind="protein stability index" number=3.18
variantidentifier=R18F measurementkind="protein stability index" number=2.4
variantidentifier=L13W measurementkind="protein stability index" number=3.19
variantidentifier=Y7R measurementkind="protein stability index" number=3.55
variantidentifier=E23G measurementkind="protein stability index" number=2.62
variantidentifier=K15D measurementkind="protein stability index" number=3.24
variantidentifier=K24E measurementkind="protein stability index" number=3.45
variantidentifier=I19M measurementkind="protein stability index" number=2.66
variantidentifier=C12P measurementkind="protein stability index" number=3.05
variantidentifier=E4K measurementkind="protein stability index" number=1.66
variantidentifier=Y9Q measurementkind="protein stability index" number=3
variantidentifier=A6K measurementkind="protein stability index" number=2.56
variantidentifier=S11L measurementkind="protein stability index" number=1.74
variantidentifier=K15Y measurementkind="protein stability index" number=1.92
variantidentifier=H16I measurementkind="protein stability index" number=1.69
variantidentifier=I19R measurementkind="protein stability index" number=3.19
variantidentifier=D1Y measurementkind="protein stability index" number=2.17
variantidentifier=E2N measurementkind="protein stability index" number=2.62
variantidentifier=V14E measurementkind="protein stability index" number=3.38
variantidentifier=H20S measurementkind="protein stability index" number=2.37
variantidentifier=K5S measurementkind="protein stability index" number=2.44
variantidentifier=F8N measurementkind="protein stability index" number=3.7
variantidentifier=R22K measurementkind="protein stability index" number=3.08
variantidentifier=Y7W measurementkind="protein stability index" number=2.25
variantidentifier=H20N measurementkind="protein stability index" number=2.57
variantidentifier=R18E measurementkind="protein stability index" number=2.59
variantidentifier=H20I measurementkind="protein stability index" number=2.09
variantidentifier=Y9I measurementkind="protein stability index" number=2.42
variantidentifier=K24D measurementkind="protein stability index" number=3.02
variantidentifier=E4N measurementkind="protein stability index" number=2
variantidentifier=E2Y measurementkind="protein stability index" number=4.44

Sourced from the supplement of paper PMC10567573
